# target of assay: recombinant human IL-18 (human, UniProt Q14116 37-193)
# test details: cell-based or functional assay
Measured IC50, IFNγ release KG-1 cell assay, human IL-18, listed per entry.
I only need the number, in nM, no unit after it.

Observe how each entry below is paired with its result.
# binder, endpoint result
rows = [
    ("Antibody 12 GL IgG2 (antibody, V domains shown, Germlined; whole human IgG2, kappa light chain) VH: QVQLQESGPGLVKPSETLSLTCTVSGGSISADGYYWSWIRQPPGKGLEWIGSLYYSGSTYYNPSLKGRVTISGDTSKNQFSLKLSSVTAADTAVYYCARTPAYFGQDRTDFFDVWGRGTLVTVSS VL: DIQMTQSPSTLSASVGDRVTITCRASQGISSWLAWYQQKPGKAPKVLIYKASTLESGVPSRFSGSGSGTEFTLTISSLQPDDFATYYCQQSHHPPWTFGQGTKLEIK", 0.202),
    ("Antibody 7 GL IgG2 (antibody, V domains shown) VH: QVQLQESGPGLVKPSETLSLTCTVSGGSISSGGYYWSWIRQPPGKGLEWIGSIYYSGSTYYNPSLKSRVTISGDTSKNQFSLKLSSVTAADTAVYYCARTPAYFGQDRTDFFDVWGRGTLVTVSS VL: DIQMTQSPSTLSASVGDRVTITCRASQGISSWLAWYQQKPGKAPKVLIYKASTLESGVPSRFSGSGSGTEFTLTISSLQPDDFATYYCQQSHHPPWTFGQGTKLEIK", 0.314),
    ("Antibody 11 GL IgG2 (antibody, V domains shown) VH: QVQLQESGPGLVKPSETLSLTCTVSGGSISADGYYWSWIRQPPGKGLEWIGSLYYSGSTYYNPSLRGRVTISGDTSKNQFSLKLSSVTAADTAVYYCARTPAYFGQDRTDFFDVWGRGTLVTVSS VL: DIQMTQSPSTLSASVGDRVTITCRASQGISSWLAWYQQKPGKAPKVLIYKASTLESGVPSRFSGSGSGTEFTLTISSLQPDDFATYYCQQSHHPPWTFGQGTKLEIK", 0.194),
    ("Antibody 8 GL IgG2 (antibody, V domains shown, Germlined; whole human IgG2, kappa light chain) VH: QVQLQESGPGLVKPSETLSLTCTVSGGSISAGGYYWSWIRQPPGKGLEWIGSLYYSGSTYYNPSLKGRVTISGDTSKNQFSLKLSSVTAADTAVYYCARTPAYFGQDRTDFFDVWGRGTLVTVSS VL: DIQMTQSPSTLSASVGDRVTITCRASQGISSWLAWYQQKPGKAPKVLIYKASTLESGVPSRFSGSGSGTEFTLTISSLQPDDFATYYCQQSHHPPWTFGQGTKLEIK", 0.444),
    ("Antibody 12 GL IgG1TM (antibody, V domains shown, Human IgG1 (gamma 1 (f)) constant domains with three single amino acid substitutions (TM, Oganesyan et al 2008) and human kappa Km3 light chain constant domain; Expressed in CHO cells; also called germlined Antibody 12 IgG1TM) VH: QVQLQESGPGLVKPSETLSLTCTVSGGSISADGYYWSWIRQPPGKGLEWIGSLYYSGSTYYNPSLKGRVTISGDTSKNQFSLKLSSVTAADTAVYYCARTPAYFGQDRTDFFDVWGRGTLVTVSS VL: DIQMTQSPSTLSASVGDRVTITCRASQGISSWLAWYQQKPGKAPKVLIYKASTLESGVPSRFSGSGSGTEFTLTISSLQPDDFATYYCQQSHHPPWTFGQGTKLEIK", 0.08),
    ("Antibody 1 GL IgG2 (antibody, V domains shown) VH: QVQLQESGPGLVKPSETLSLTCTVSGGSISSGGYYWSWIRQPPGKGLEWIGSIYYSGSTYYNPSLKSRVTISGDTSKNQFSLKLSSVTAADTAVYYCARTPAYDGDARADFFDVWGRGTLVTVSS VL: DIQMTQSPSTLSASVGDRVTITCRASQGISSWLAWYQQKPGKAPKVLIYKASTLESGVPSRFSGSGSGTEFTLTISSLQPDDFATYYCQQSYSTPWTFGQGTKLEIK", 159),
]

Please look at the following binder next.
### Prompt Bench note: what IC50, IFNγ release KG-1 cell assay, human IL-18 did Antibody 6 GL IgG2 (antibody, V domains shown) VH: QVQLQESGPGLVKPSETLSLTCTVSGGSISSGGYYWSWIRQPPGKGLEWIGSIYYSGSTYYNPSLKSRVTISGDTSKNQFSLKLSSVTAADTAVYYCARTPAYFGQDRTDFFDVWGRGTLVTVSS VL: DIQMTQSPSTLSASVGDRVTITCRASQGISSWLAWYQQKPGKAPKVLIYKASTLESGVPSRFSGSGSGTEFTLTISSLQPDDFATYYCANIAFPPWTFGQGTKLEIK show?
### Response 0.535
